system: Staphylococcus aureus ATCC 25923; assay: ≥ marks a high value that may be exact or a test limit, other limits are often not marked, values filed in µg/mL are converted to µM
Measured MIC, listed per entry.

Test smiles	MIC / µM
NC(=O)[C@H](CCCN=C(N)N)NC(=O)[C@H](Cc1c[nH]c2ccccc12)NC(=O)[C@H](Cc1c[nH]c2ccccc12)NC(=O)[C@H](CCCN=C(N)N)NC(=O)[C@H](Cc1c[nH]c2ccccc12)NC(=O)[C@H](Cc1c[nH]c2ccccc12)NC(=O)[C@@H](N)CCCN=C(N)N	2.03
CC[C@H](C)[C@H](NC(=O)[C@H](CCCN=C(N)N)NC(=O)[C@H](CC(C)C)NC(=O)[C@H](CCC(N)=O)NC(=O)[C@@H](N)C(C)C)C(=O)N[C@@H](CCCN=C(N)N)C(=O)N[C@H](C(=O)N[C@@H](CS)C(=O)N[C@H](C(=O)N[C@H](C(=O)N[C@@H](CCCN=C(N)N)C(=O)N[C@@H](CCCCN)C(=O)O)[C@@H](C)CC)C(C)C)C(C)C	10.8
CC[C@H](C)[C@H](NC(C)=O)C(=O)N[C@@H](Cc1ccccc1)C(=O)NCC(=O)N[C@@H](C)C(=O)N[C@H](C(=O)N[C@@H](Cc1c[nH]c2ccccc12)C(=O)N1CCC[C@H]1C(=O)N[C@@H](CC(C)C)C(=O)N[C@@H](C)C(=O)N[C@@H](CC(C)C)C(=O)NCC(=O)N[C@@H](C)C(=O)N[C@@H](CC(C)C)C(=O)N[C@@H](CCCCN)C(=O)N[C@@H](CC(N)=O)C(=O)N[C@@H](CC(C)C)C(=O)N[C@H](C(=O)N[C@@H](CCCCN)C(N)=O)[C@@H](C)CC)[C@@H](C)CC	4
CC[C@H](C)[C@H](N)C(=O)N[C@@H](CC(C)C)C(=O)NCC(=O)N[C@@H](CCCCN)C(=O)N[C@H](C(=O)N[C@@H](Cc1c[nH]c2ccccc12)C(=O)N[C@@H](CCC(=O)O)C(=O)NCC(=O)N[C@H](C(=O)N[C@@H](CCCCN)C(=O)N[C@@H](CO)C(=O)N[C@@H](CC(C)C)C(=O)N[C@@H](Cc1ccccc1)C(N)=O)[C@@H](C)CC)[C@@H](C)CC	2
CC[C@H](C)[C@H](NC(=O)CN)C(=O)N[C@@H](CC(C)C)C(=O)N[C@@H](CO)C(=O)N[C@@H](CCCCN)C(=O)N[C@@H](CC(C)C)C(=O)NCC(=O)N[C@@H](CCCCN)C(=O)N[C@@H](C)C(=O)N[C@@H](CC(C)C)C(=O)N[C@@H](CCCCN)C(=O)N[C@@H](CCCCN)C(=O)N[C@@H](C)C(=O)N[C@@H](C)C(=O)N[C@@H](CCCCN)C(=O)N[C@@H](Cc1cnc[nH]1)C(=O)N[C@@H](C)C(=O)N[C@@H](C)C(=O)N[C@@H](CCCCN)C(=O)N[C@@H](C)C=O	8

* * *

system: Staphylococcus aureus ATCC 25923; experiment: ≥ marks a high value that may be exact or a test limit, other limits are often not marked, values filed in µg/mL are converted to µM
Observation type: MIC (µM)

Test smiles	Value reported
CC[C@H](C)[C@H](NC(=O)[C@H](CC(N)=O)NC(=O)[C@H](Cc1cnc[nH]1)NC(=O)[C@H](Cc1ccccc1)NC(=O)[C@H](CC(C)C)NC(=O)[C@H](CCSC)NC(=O)CNC(=O)[C@H](CC(C)C)NC(=O)[C@H](CCSC)NC(=O)[C@H](CCCCN)NC(=O)[C@@H](N)CC(C)C)C(=O)N[C@@H](CCCN=C(N)N)C(=O)N[C@@H](CC(N)=O)C(=O)N[C@H](C(=O)N[C@@H](CC(C)C)C(=O)N[C@@H](CCCCN)C(=O)N[C@H](C(=O)N[C@H](C(N)=O)C(C)C)[C@@H](C)O)[C@@H](C)CC	128

* * *

test system: Staphylococcus aureus ATCC 25923
Measured MIC, listed per entry.

Compound	Value operator	MIC, µM
CC[C@H](C)[C@H](NC(=O)[C@H](C)NC(=O)[C@H](Cc1ccccc1)NC(=O)[C@H](CC(C)C)NC(=O)CN)C(=O)N[C@H](C(=O)N[C@@H](CCCCN)C(=O)N[C@@H](CCCCN)C(=O)N[C@H](C(=O)N[C@@H](C)C(=O)N[C@@H](CCC(=O)O)C(=O)N[C@@H](CO)C(=O)N[C@@H](Cc1ccccc1)C(N)=O)[C@@H](C)CC)[C@@H](C)CC [GLFAIIKKIAESF]	=	11.1
CC[C@H](C)[C@H](NC(=O)[C@H](CC(C)C)NC(=O)[C@H](CCCCN)NC(=O)[C@@H](NC(=O)[C@H](CC(C)C)NC(=O)[C@H](CCCN=C(N)N)NC(=O)[C@H](CCCN=C(N)N)NC(=O)[C@@H](NC(=O)[C@H](C)NC(=O)[C@H](CCCCN)NC(=O)[C@H](C)NC(=O)[C@H](CC(C)C)NC(=O)[C@@H](NC(=O)[C@@H](N)CCCN=C(N)N)[C@@H](C)CC)[C@@H](C)O)C(C)C)C(=O)N[C@H](C(=O)N[C@@H](CO)C(=O)NCC(=O)O)C(C)C [RILAKATRRLVKLIVSG]	>	25
CC(C)C[C@H](NC(=O)[C@H](CCCN=C(N)N)NC(=O)[C@H](Cc1c[nH]c2ccccc12)NC(=O)[C@H](CCCN=C(N)N)NC(=O)[C@@H](NC(=O)[C@H](Cc1c[nH]c2ccccc12)NC(=O)[C@H](Cc1c[nH]c2ccccc12)NC(=O)[C@H](CCCN=C(N)N)NC(=O)[C@H](CC(C)C)NC(=O)[C@H](Cc1c[nH]c2ccccc12)NC(=O)[C@@H](N)CCCN=C(N)N)[C@@H](C)O)C(=O)N[C@@H](CCCCN)C(N)=O [RWLRWWTRWRLK]	=	2
CC(C)C[C@H](NC(=O)[C@H](CC(C)C)NC(=O)[C@H](CCCCN)NC(=O)[C@H](CCCCN)NC(=O)[C@H](CC(C)C)NC(=O)[C@@H]1CCCN1C(=O)[C@H](CCCCN)NC(=O)[C@H](CC(C)C)NC(=O)[C@@H](N)Cc1ccccc1)C(N)=O [FLKPLKKLL]	>	116
NCCCC[C@H](NC(=O)[C@@H](N)CCCN=C(N)N)C(=O)N[C@@H](CCCN=C(N)N)C(=O)N[C@@H](Cc1c[nH]c2ccccc12)C(=O)N[C@@H](Cc1c[nH]c2ccccc12)C(=O)N[C@@H](Cc1c[nH]c2ccccc12)C(=O)N[C@@H](Cc1c[nH]c2ccccc12)C(=O)N[C@@H](Cc1ccccc1)C(=O)N[C@@H](CCCN=C(N)N)C(=O)O [RKRWWWWFR]	=	2.65
CC[C@H](C)[C@H](NC(=O)[C@@H]1CSSC[C@H](NC(=O)[C@@H](NC(=O)[C@@H](N)CCCN=C(N)N)[C@@H](C)CC)C(=O)N[C@@H](CCCN=C(N)N)C(=O)N[C@@H]([C@@H](C)CC)C(=O)N[C@@H](C(C)C)C(=O)N[C@@H](C(C)C)C(=O)N[C@@H]([C@@H](C)CC)C(=O)N[C@@H](CCCN=C(N)N)C(=O)N1)C(=O)N[C@@H](CCCN=C(N)N)C(N)=O [RICRIVVIRCIR]	=	21.3

* * *

test system: Pseudomonas aeruginosa ATCC 27853; test: ≥ marks a high value that may be exact or a test limit, other limits are often not marked, values filed in µg/mL are converted to µM

Test smiles	MIC
CC[C@H](C)[C@H](NC(=O)CN)C(=O)N[C@@H](Cc1c[nH]c2ccccc12)C(=O)N[C@@H](CO)C(=O)N[C@@H](CO)C(=O)N[C@@H](CC(C)C)C(=O)N[C@@H](CC(C)C)C(=O)N[C@@H](CCCCN)C(=O)N[C@@H](CCCCN)C(=O)N[C@@H](CC(C)C)C(=O)N[C@@H](CCCCN)C(=O)N[C@@H](CCCCN)C(=O)N[C@H](C(=O)N[C@H](C(=O)N[C@@H](C)C(=O)N[C@@H](CCCCN)C(N)=O)[C@@H](C)CC)[C@@H](C)CC	6.3 µM

* * *

tested on: Candida albicans ATCC 2002

Test smiles	Tested target	Value operator	MIC (µM)
CC[C@H](C)[C@H](NC(=O)[C@@H]1CCCN1C(=O)[C@H](Cc1ccccc1)NC(=O)[C@@H](N)Cc1ccccc1)C(=O)N[C@H](C(=O)NCC(=O)N[C@@H](CCCCN)C(=O)N[C@@H](CC(C)C)C(=O)N[C@@H](CC(C)C)C(=O)N[C@@H](Cc1ccccc1)C(=O)NCC(=O)N[C@@H](CC(C)C)C(=O)N[C@@H](CC(C)C)C(N)=O)C(C)C	Candida albicans ATCC 2002	=	3.42
CC[C@H](C)[C@H](NC(=O)CNC(=O)[C@H](CO)NC(=O)[C@H](CC(C)C)NC(=O)[C@H](CC(C)C)NC(=O)CN)C(=O)N[C@@H](CC(C)C)C(=O)NCC(=O)N[C@@H](C)C(=O)NCC(=O)N[C@@H](CCCCN)C(=O)N[C@@H](CCCCN)C(=O)N[C@H](C(=O)N[C@H](C(=O)N[C@H]1CSSC[C@@H](C(=O)O)NC(=O)[C@H](CC(C)C)NC(=O)CNC(=O)[C@H](CO)NC(=O)[C@H](CC(C)C)NC(=O)CNC1=O)C(C)C)[C@@H](C)CC	Candida albicans ATCC 2002	=	0.51
C[C@@H](O)[C@H](NC(=O)[C@H](CO)NC(=O)[C@H](Cc1ccccc1)NC(=O)[C@@H](N)Cc1ccccc1)C(=O)N[C@@H](CO)C(=O)N[C@H]1CSSC[C@@H](C(=O)O)NC(=O)CNC(=O)[C@H](CO)NC(=O)[C@H](CCCN=C(N)N)NC1=O	Candida albicans ATCC 2002	≥	91.4

Origin of the recorded values: DBAASP
